Tested on: MDA-MB-231 breast
Assay Notes: NCI-60 one-dose screen, 48 h (100 = growth as untreated, 0 = no growth, -100 = all killed)
Experimental Conditions: 10 µM unless noted
The panel holds about 83,000 compounds, 20% with a hit somewhere; the sample as a whole holds those more often.
This listing pairs compounds with measured growth.
The reply should contain only the number, in %.

Some solved entries appear below for comparison.
compound=C#CCN(C)CCCOc1ccc(NC(=O)CCCCCCCCC(=O)NO)cc1Cl tgt="MDA-MB-231 breast" numeric_result=89.5
compound="COc1ccc(C2c3[nH]c4ccc(Cl)cc4c3CCN2c2oc(CO)nc2C#N)cc1 (centres undefined)" tgt="MDA-MB-231 breast" numeric_result=59.7
compound=C#C[C@]1(O)CC[C@H]2[C@@H]3CC=C4c5sc(Nc6cccc(F)c6)nc5CC[C@]4(C)[C@H]3CC[C@@]21C tgt="MDA-MB-231 breast" numeric_result=30.6
compound=CS(=O)(=O)c1ccc(/C(=N/N=C(N)N)c2ccc(F)cc2)cc1 tgt="MDA-MB-231 breast" numeric_result=105
compound=C/C(=N\NC(N)=S)c1nnn(-c2ccc([N+](=O)[O-])cc2)c1C tgt="MDA-MB-231 breast" numeric_result=96.2

Qu. Which measured growth value corresponds to N#Cc1c(-c2cccs2)c(C#N)c(=O)n(Cc2nc3ccccc3[nH]2)c1N ?
Ans. 82.4

Qu. Look up growth: O=C1[C@@H]2Cc3c([nH]c4ccccc34)[C@H](c3ccc(Br)cc3)N2C(=O)CN1C1CCN(Cc2c(Cl)cccc2Cl)CC1
Ans. 89

Qu. What value of growth has been recorded for this entry: CC(Nc1c(C#N)cnc2ccc(-c3cncc(-c4n[nH]c(=O)o4)c3)cc12)c1ccccc1 (centres undefined)
Ans. 17.2
